molecular target: Mu-type opioid receptor (Homo sapiens) + Delta-type opioid receptor (Homo sapiens) (UniProt P35372+P41143); test: agonists of OPRM1-OPRD1 heterodimerization, primary screen, cell-based, luminescence (AID 504326); conditions: cells, at 9.3 µM;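 note: 0% = vehicle-treated cells and 100% = reference agonist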
Sequence (P35372 whole entry, looked up): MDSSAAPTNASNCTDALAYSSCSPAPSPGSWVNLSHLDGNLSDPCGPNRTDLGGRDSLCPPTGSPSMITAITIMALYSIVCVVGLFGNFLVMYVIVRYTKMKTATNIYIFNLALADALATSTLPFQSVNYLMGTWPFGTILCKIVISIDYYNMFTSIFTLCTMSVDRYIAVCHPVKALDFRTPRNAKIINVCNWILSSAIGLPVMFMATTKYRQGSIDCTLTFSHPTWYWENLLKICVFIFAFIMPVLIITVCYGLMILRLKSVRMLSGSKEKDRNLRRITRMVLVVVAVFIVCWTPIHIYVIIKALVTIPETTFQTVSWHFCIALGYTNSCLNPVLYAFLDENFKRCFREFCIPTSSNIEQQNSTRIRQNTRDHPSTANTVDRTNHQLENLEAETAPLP
Sequence (P41143 whole entry, looked up): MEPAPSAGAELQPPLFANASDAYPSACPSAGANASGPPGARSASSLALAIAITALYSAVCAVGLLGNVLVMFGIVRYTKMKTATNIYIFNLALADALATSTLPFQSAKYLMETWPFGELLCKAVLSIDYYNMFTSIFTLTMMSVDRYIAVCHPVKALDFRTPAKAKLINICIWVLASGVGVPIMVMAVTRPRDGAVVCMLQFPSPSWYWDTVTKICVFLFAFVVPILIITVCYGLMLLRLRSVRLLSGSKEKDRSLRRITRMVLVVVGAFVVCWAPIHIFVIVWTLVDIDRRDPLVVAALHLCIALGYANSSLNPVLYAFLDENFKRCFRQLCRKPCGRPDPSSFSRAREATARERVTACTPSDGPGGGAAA
Hit rate of the full screen: of about 340,000 compounds, about 990 (0.29%) were called active. Cut-off read from the data, not from the text of the source: active = activation above about 18%; inactive = the rest. The full list was thinned out, with actives kept by preference.
Select the matching outcome among active, inactive

Reference set, count: 2
>  <molecule>
COc1ccc(/C=C/C(=O)Nc2ccc(C34CC5CC(CC(O)(C5)C3)C4)cc2)cc1OC

>  <label>
inactive

$$$$
>  <molecule>
Cc1ccc(Nc2nc(Cl)c(C=O)s2)cc1

>  <label>
inactive

$$$$

Lookup: Outcome? Nc1ccc(C(=O)Nc2ccccc2N)cc1
Found: inactive

Lookup: What call does the record list for O=C(COc1ccc2ccc(=O)oc2c1)NCC(O)c1ccccc1 (stereo unspecified) ?
Found: inactive

Lookup: For Cc1ccc2nc(-c3ccncc3)cc(C(=O)Nc3ccncc3)c2c1 , which call appears in the assay record?
Found: active

Lookup: What call does the record list for O=C(Nc1ccncc1)c1cc(-c2ccccn2)nc2ccc(Br)cc12 ?
Found: inactive

====

biological target: Mu-type opioid receptor (Homo sapiens) + Delta-type opioid receptor (Homo sapiens) (UniProt P35372+P41143); test: agonists of OPRM1-OPRD1 heterodimerization, primary screen, cell-based, luminescence (AID 504326); details: cells, at 9.3 µM, active compounds read high;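 note: 0% = vehicle-treated cells and 100% = reference agonist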
The whole screen tested about 340,000 compounds, of which about 990 (0.29%) were called active. Shown is part of a subset that was picked to be rich in actives.
attribute-measured: activation (%)
Only the number, expressed in %, is required.

Below are worked cases with known answers.
>  <molecule>
O=C(CCl)N(Cc1cccc([N+](=O)[O-])c1)c1cccc(Cl)c1

>  <activation [%]>
31.3

$$$$
>  <molecule>
CCOc1ccc(OCC)c(-c2c(=O)n(OCc3ccc(Cl)cc3)c3ccccc3[n+]2[O-])c1

>  <activation [%]>
-0.14

$$$$
>  <molecule>
Cc1ccc(Nc2ccccc2N)cc1

>  <activation [%]>
21.4

$$$$
>  <molecule>
COCCN(C(=O)CCC(=O)Nc1nccs1)C(C(=O)NCCC(C)C)c1ccc(F)cc1 (stereo not given)

>  <activation [%]>
-1.57

$$$$

Okay, next one:
get_value(item= Cc1ccc(S(=O)(=O)N(Cc2cccc([N+](=O)[O-])c2)C(=O)N2CCN(C)CC2)cc1 , readout=activation) returns 2.18

====

target: Mu-type opioid receptor (Homo sapiens) + Delta-type opioid receptor (Homo sapiens) (UniProt P35372+P41143); assay: agonists of OPRM1-OPRD1 heterodimerization, primary screen, cell-based, luminescence (AID 504326); settings: cells, at 9.3 µM, active compounds read high;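 note: 0% = vehicle-treated cells and 100% = reference agonist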
Among all 340,000 compounds or so, about 990 (0.29%) were called active. Only a selection was taken, and actives are over-represented in it overall.
attribute-measured: activation (%)
Field: numeric (%). Do not append units.

>  <molecule>
COc1cc(/C=N/NC(=O)c2ccoc2C)ccc1OCCN1CCCCC1

>  <attribute-measured>
activation

>  <units-symbol>
%

>  <observed-measurement>
-0.79

$$$$
>  <molecule>
CC(C)(C)OC(=O)CNC(=O)c1[nH]cnc1C(=O)N[C@@H](Cc1ccccc1)C(=O)OCc1ccccc1

>  <attribute-measured>
activation

>  <units-symbol>
%

>  <observed-measurement>
14.2

$$$$
>  <molecule>
COc1cccc(CNc2nc(C(F)(F)F)nc3ccccc23)c1

>  <attribute-measured>
activation

>  <units-symbol>
%

>  <observed-measurement>
5.18

$$$$
>  <molecule>
Cc1c(C(=O)c2cccc([N+](=O)[O-])c2)c2ccccn2c1CCC#N

>  <attribute-measured>
activation

>  <units-symbol>
%

>  <observed-measurement>
-2.59

$$$$
>  <molecule>
COc1ccc(NC(=O)CN(C)C(=O)c2ccc(COc3ccccc3)o2)cc1

>  <attribute-measured>
activation

>  <units-symbol>
%

>  <observed-measurement>
-1.92

$$$$

response.value for CC(C)(C)OC(=O)N1CCC(NC(=O)c2[nH]cnc2C(=O)N[C@@H](Cc2ccccc2)C(=O)OCc2ccccc2)CC1 (field: activation) = 21.9

The measured activation associated with CN1CCN(c2ccc([N+](=O)[O-])c(Sc3nc4ccccc4[nH]3)c2)CC1 reads 55.9

The reported activation of the molecule CCc1nc2ccccc2c(C(=O)OC2CCCCC2=O)c1C (stereo not given) was -2.96

Query CCS(=O)(=O)c1ccc(O)c(NC(=O)COc2ccc(Cl)cc2)c1 yields activation of -5.16

// recorded activation for COc1ccc(CCNC(=O)CN(c2ccccc2)S(C)(=O)=O)cc1OC : 0.27

====

Catalogue of activation readings, one per entry.
biological target: Mu-type opioid receptor (Homo sapiens) + Delta-type opioid receptor (Homo sapiens) (UniProt P35372+P41143); experiment: agonists of OPRM1-OPRD1 heterodimerization, primary screen, cell-based, luminescence (AID 504326); details: cells, at 9.3 µM, active compounds read high;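 note: 0% = vehicle-treated cells and 100% = reference agonist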
Out of some 340,000 compounds screened, about 990 (0.29%) were called active. The sample holds actives, similar compounds and a random draw of the others, so the mix is not that of the screen.
Provide only the numeric value, understood in %.

Please review the following examples before continuing.
>  <molecule>
Cc1c(NC(=O)C(C)OC(=O)c2c3c(nc4ccccc24)CCC(C)C3)c(=O)n(-c2ccccc2)n1C (configuration not stated)

>  <activation, %>
-2.46

$$$$
>  <molecule>
COc1cccc(-n2c(SCC(=O)NC3CCCCC3)nc3n[nH]c(C)c3c2=N)c1

>  <activation, %>
0.14

$$$$
>  <molecule>
Cc1ccc(C)c(N(CC(=O)NCc2ccco2)C(=O)CCC(=O)Nc2ccccn2)c1

>  <activation, %>
-3.72

$$$$
>  <molecule>
COc1cc2c(cc1OC)CC1(CCCCC1)N=C2

>  <activation, %>
-3.02

$$$$
>  <molecule>
Cn1cccc1/C=N/NC(=O)c1ccc(OC(F)(F)C(F)F)cc1

>  <activation, %>
-1.62

$$$$

Now turn to the next molecule.
molecule O=C1c2cccc3c([N+](=O)[O-])ccc(c23)C(=O)N1CC1CCCO1 (configuration not stated) , activation observed: 2.93

====

molecular target: Mu-type opioid receptor (Homo sapiens) + Delta-type opioid receptor (Homo sapiens) (UniProt P35372+P41143); experiment: agonists of OPRM1-OPRD1 heterodimerization, primary screen, cell-based, luminescence (AID 504326); conditions: cells, at 9.3 µM;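 note: 0% = vehicle-treated cells and 100% = reference agonist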
Out of some 340,000 compounds screened, about 990 (0.29%) were called active. Cut-off read from the data, not from the text of the source: active = activation above about 18%; inactive = the rest. The list comes from a sample in which actives are over-represented; it also holds close analogues and randomly drawn compounds.
Result category, one only: T (active), F (inactive)

Below, 3 compounds whose answers are already recorded.
>  <compound>
CCn1nnnc1SCC(=O)Nc1ccc(N(C)C)cc1

>  <label>
F

$$$$
>  <compound>
CCCOc1ccc(C(=O)C(CCC(CNCC)C(=O)c2ccc(OCCC)cc2)CNCC)cc1 (configuration not stated)

>  <label>
F

$$$$
>  <compound>
C=CCN(C(=O)c1cc(C)cc(C)c1)C1(C(=O)Nc2ccccc2)CCN(C(C)C)CC1

>  <label>
F

$$$$

Lookup: Could you kindly confirm the outcome this assay logged for CC(C)(C)NS(=O)(=O)c1ccc(NC(=O)C2CCCO2)cc1 (configuration not stated) ?
Found: F

Lookup: Kindly provide the recorded test outcome for the following compound: CC(C)NS(=O)(=O)c1ccc(NC(=O)C2CCCCC2)cc1
Found: F

Lookup: I'd appreciate the recorded outcome for CCOc1ccc(-c2c(C)n([O-])c3c([n+]2=O)CCCC3)cc1 from this test.
Found: F

Lookup: Assay result, entry COc1ccc(C2Nc3ccccc3C(=O)N2Cc2ccccc2)cc1Cn1nnc2ccccc21 (configuration not stated) — outcome?
Found: F

Lookup: I would be grateful if you could indicate the recorded call for CC1CCCCC12NC(=O)N(CC(=O)OCC(=O)NCc1ccc(F)cc1)C2=O (configuration not stated) .
Found: F

Lookup: What call does the record list for CC(CNc1ccc([N+](=O)[O-])c2cccnc12)Nc1c([N+](=O)[O-])cc(C(F)(F)F)cc1[N+](=O)[O-] (configuration not stated) ?
Found: F

Lookup: Assay result, entry Cc1cc(C)cc(C(=O)N(CCc2ccccc2)C2=CC3CCC(C2)N3C)c1 (configuration not stated) — outcome?
Found: T

====

biological target: Mu-type opioid receptor (Homo sapiens) + Delta-type opioid receptor (Homo sapiens) (UniProt P35372+P41143); test: agonists of OPRM1-OPRD1 heterodimerization, primary screen, cell-based, luminescence (AID 504326); conditions: cells, at 9.3 µM, active compounds read high;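 note: 0% = vehicle-treated cells and 100% = reference agonist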
Out of some 340,000 compounds screened, about 990 (0.29%) were called active. For the sample, actives were picked, then their nearest neighbours and some compounds at random.
If the reported activation equals or exceeds 20%, assign met. If not, assign not met.

>  <compound>
Cc1ccc(N=C2NC(=O)c3cccc([N+](=O)[O-])c32)cc1

>  <label>
not met

$$$$
>  <compound>
C=C(C)COc1ccc(-c2n[nH]c(C)c2-c2ccccc2)c(O)c1

>  <label>
met

$$$$
>  <compound>
COCCOC1CCN(C(=O)c2ccc(OC)c(OC3CCN(C(C)C)CC3)c2)CC1

>  <label>
not met

$$$$
>  <compound>
COC(=O)C1=NNC2(c3ccc(C)cc3)C(=O)N(c3cccc(C)c3C)C(=O)C12 (stereo not given)

>  <label>
not met

$$$$

Switching to the query record.
Lookup: Does the compound COc1cc(C(=O)OC(C)C(=O)NCC2CCCCC2)cc(NC(=O)c2ccco2)c1OC (stereo not given) have recorded activation that is 20% or more?
Found: met

The reported measurements were obtained from PubChem BioAssay AID504326.
